Measured values drawn from patent US11319321B2 for this set.

As shown below, each of these compounds has a reported Emax value.
Target: hPDE10A2 (Homo sapiens)
Assay: biochemical
Settings: read-out: hPDE10A2 or rPDE10A2 Emax, human clone; 60 nM cAMP substrate

# compound, Emax
measured = [
    ("C[C@@H]1CCN(Cc2cccc(N3CCCCC3)n2)C[C@H]1c1cc(C(F)F)nc2ncnn12 [Compound 17]", "49%"),
    ("Cc1cc(CN2CC[C@@H](C)[C@H](c3cc(C(F)F)nc4ncnn34)C2)cc(Cl)n1.Cl [Compound 10]", "82%"),
    ("C[C@H]1CCN(Cc2ccc(F)c(F)c2)C[C@@H]1c1cc(C(F)F)nc2ncnn12.Cl [Compound 41]", "15%"),
    ("COc1ccc(CN2CC[C@@H](C)[C@@H](c3cc(C(F)F)nc4ncnn34)C2)c(OC)c1 [Compound 47]", "37%"),
    ("COc1ccc(CN2CCC[C@](C)(c3cc(C(F)F)nc4ncnn34)C2)c(OC)c1.Cl (stereo in doubt) [Compound 53]", "0%"),
    ("C[C@@H]1CCN(Cc2ccc(F)c(F)c2)C[C@H]1c1cc(C(F)F)nc2ncnn12.Cl [Compound 40]", "35%"),
    ("CC(C)c1ccc(CN2CC[C@@H](C)[C@H](c3cc(C(F)F)nc4ncnn34)C2)cc1 [Compound 18]", "56%"),
]

====

Target: Human recombinant PDE2A (hPDE2A) (Homo sapiens)
Construct: made in house; host or cells: Sf9 insect cells (baculovirus)
Test: In vitro assay PDE2A (SPA, 3H-cGMP)
Type: biochemical
Conditions: 10 μM cGMP substrate; read-out: hPDE2A pIC50 (converted)
Description: Human recombinant PDE2A (hPDE2A) was expressed in Sf9 cells using a recombinant rPDE10A baculovirus construct. Cells were harvested after 48 h of infection and the hPDE2A protein was purified by metal chelate chromatography on Ni-sepharose 6FF. […] After sedimentation of the beads during 30 minutes the radioactivity was measured in a Perkin Elmer Topcount scintillation counter and results were expressed as cpm. […]
As shown below, each of these compounds has a reported IC50 value.

# compound, IC50
measured = [
    ("Cc1cc(CN2CC[C@@H](C)[C@H](c3cc(C(F)F)nc4ncnn34)C2)cc(C2CC2)n1", "5.25 nM"),
    ("C[C@H]1CCN(Cc2ccc(F)c(F)c2)C[C@@H]1c1cc(C(F)F)nc2ncnn12.Cl", "1950 nM"),
    ("Cc1cc([C@@H](C)N2CC[C@@H](C)[C@H](c3cc(C(F)F)nc4ncnn34)C2)cc(Cl)n1 (single isomer, unassigned)", "77.6 nM"),
    ("Cc1cc([C@H](C)N2CC[C@@H](C)[C@H](c3cc(C(F)F)nc4ncnn34)C2)cc(C2CC2)n1 (relative stereo)", "87.1 nM"),
    ("C[C@@H]1CCN(Cc2ccc(F)c(F)c2)C[C@@H]1c1cc(C(F)F)nc2ncnn12", "3390 nM"),
    ("Cc1cc([C@H](C)N2CC[C@@H](C)[C@H](c3cc(C(F)F)nc4ncnn34)C2)cc(Cl)n1 (single isomer, unassigned)", "7.76 nM"),
    ("C[C@]1(c2cc(C(F)F)nc3ncnn23)CCCN(Cc2ccc(F)c(F)c2)C1.Cl (stereo in doubt)", "~8910 nM"),
    ("C[C@@H]1CCN(Cc2ccccc2)C[C@H]1c1cc(C(F)F)nc2ncnn12", "457 nM"),
    ("Cc1cc([C@@H](C)N2CC[C@@H](C)[C@H](c3cc(C(F)F)nc4ncnn34)C2)cc(C2CC2)n1 (relative stereo)", "13.5 nM"),
    ("C[C@@H]1CCN(Cc2ccc(C(F)(F)F)cc2)C[C@H]1c1cc(C(F)F)nc2ncnn12", "170 nM"),
    ("C[C@@H]1CCN(Cc2ccc(F)c(F)c2)C[C@H]1c1cc(C(F)F)nc2ncnn12.Cl", "1120 nM"),
    ("C[C@@H]1CCN(Cc2ccc(OC(F)(F)F)cc2)C[C@H]1c1cc(C(F)F)nc2ncnn12", "575 nM"),
]

====

As shown below, each of these compounds has a reported IC50 value.
Molecular target: hPDE10A2 (Homo sapiens, UniProt Q9Y233)
Sequence (Q9Y233 267-1055): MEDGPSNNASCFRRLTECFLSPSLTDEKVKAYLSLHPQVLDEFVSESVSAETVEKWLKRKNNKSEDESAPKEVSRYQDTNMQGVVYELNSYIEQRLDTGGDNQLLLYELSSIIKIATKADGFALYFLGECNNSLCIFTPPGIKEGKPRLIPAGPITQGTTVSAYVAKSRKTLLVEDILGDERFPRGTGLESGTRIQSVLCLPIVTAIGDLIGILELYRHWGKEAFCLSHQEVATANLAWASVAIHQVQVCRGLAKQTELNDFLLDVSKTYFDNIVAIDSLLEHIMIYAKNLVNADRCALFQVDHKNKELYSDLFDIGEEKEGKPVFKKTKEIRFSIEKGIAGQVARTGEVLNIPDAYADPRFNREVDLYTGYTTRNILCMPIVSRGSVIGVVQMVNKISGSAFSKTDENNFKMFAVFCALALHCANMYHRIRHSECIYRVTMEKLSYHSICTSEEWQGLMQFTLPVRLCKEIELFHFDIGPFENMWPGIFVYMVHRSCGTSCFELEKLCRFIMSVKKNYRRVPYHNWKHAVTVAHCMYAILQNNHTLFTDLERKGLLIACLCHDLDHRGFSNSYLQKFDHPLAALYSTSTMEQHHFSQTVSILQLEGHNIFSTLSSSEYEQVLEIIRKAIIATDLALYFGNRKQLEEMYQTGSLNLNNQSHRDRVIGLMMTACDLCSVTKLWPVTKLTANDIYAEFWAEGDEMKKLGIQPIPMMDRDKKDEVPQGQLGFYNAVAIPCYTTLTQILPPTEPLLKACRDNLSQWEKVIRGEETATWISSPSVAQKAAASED
Test: biochemical
Conditions: human clone; 60 nM cAMP substrate; read-out: hPDE10A2 or rPDE10A2 pIC50 (converted)

# compound, IC50
measured = [
    ("C[C@@H]1CCN([C@@H](C)c2ccc3ncsc3c2)C[C@H]1c1cc(C(F)F)nc2ncnn12 (single isomer, unassigned)", "1.48 µM"),
    ("C[C@@H]1CCN(Cc2ccc(Cl)c(Cl)c2)C[C@H]1c1cc(C(F)F)nc2ncnn12", "2.29 µM"),
    ("C[C@@H]1CCN(Cc2cc3ccccc3cn2)C[C@H]1c1cc(C(F)F)nc2ncnn12", "1.48 µM"),
    ("Cc1cc([C@H](C)N2CC[C@@H](C)[C@H](c3cc(C(F)F)nc4ncnn34)C2)cc(C2CC2)n1 (relative stereo)", "2.95 µM"),
]

====

As shown below, each of these molecules has a reported IC50 value.
Target: Human recombinant PDE2A (hPDE2A) (Homo sapiens)
Construct: made in house; host or cells: Sf9 insect cells (baculovirus)
Test: In vitro assay PDE2A (SPA, 3H-cGMP)
Format: biochemical

# molecule, display unit, IC50
records = [
    ("C[C@@H]1CCN(Cc2nccc3ccccc23)C[C@H]1c1cc(C(F)F)nc2ncnn12", "nM", 324),
    ("C[C@@H]1CCN([C@@H](C)c2ccc3ncsc3c2)C[C@H]1c1cc(C(F)F)nc2ncnn12 (single isomer, unassigned)", "nM", 58.9),
    ("C[C@@H]1CCN(Cc2ccc3nccn3c2)C[C@H]1c1cc(C(F)F)nc2ncnn12", "nM", 22.9),
    ("C[C@@H]1CCN(Cc2ccc(Cl)c(Cl)c2)C[C@H]1c1cc(C(F)F)nc2ncnn12", "nM", 56.2),
]

====

Target: hPDE10A2 (Homo sapiens, UniProt Q9Y233)
Assay: biochemical
Conditions: read-out: hPDE10A2 or rPDE10A2 Emax, human clone; 60 nM cAMP substrate
measurement label: Emax (%)

# compound, measurement label, numeric readout
records = [
    ("Cc1cc(CN2CC[C@H](C)[C@@H](c3cc(C(F)F)nc4ncnn34)C2)cc(Cl)n1.Cl [Compound 11]", "Emax", 47),
    ("C[C@@H]1CCN(Cc2ccc(C(F)(F)F)cc2)C[C@H]1c1cc(C(F)F)nc2ncnn12 [Compound 39]", "Emax", 65),
    ("Cc1cc(C(C)N2CC[C@@H](C)[C@H](c3cc(C(F)F)nc4ncnn34)C2)cc(C)n1 (single isomer, unassigned) [Compound 1a]", "Emax", 64),
    ("C[C@@H]1CCN(CC2CCOCC2)C[C@H]1c1cc(C(F)F)nc2ncnn12.Cl [Compound 26]", "Emax", 12),
    ("C[C@@H]1CCN(Cc2cc3ccccc3cn2)C[C@H]1c1cc(C(F)F)nc2ncnn12 [Compound 8]", "Emax", 85),
    ("Cc1cc(CN2CCC(C)C(F)(c3cc(C(F)F)nc4ncnn34)C2)cc(C)n1 (centres unmarked) [Compound 51]", "Emax", 28),
    ("Cc1cc(CN2CC[C@@H](C)[C@H](c3cc(C(F)F)nc4ncnn34)C2)ccn1.Cl [Compound 15]", "Emax", 45),
    ("COc1ccc(CN2CC[C@H](C)[C@@H](c3cc(C(F)F)nc4ncnn34)C2)c(OC)c1.Cl [Compound 46]", "Emax", -6),
]

====

Target: Human recombinant PDE2A (hPDE2A) (Homo sapiens, UniProt O00408)
Construct: made in house; host or cells: Sf9 insect cells (baculovirus)
Sequence (O00408 whole entry): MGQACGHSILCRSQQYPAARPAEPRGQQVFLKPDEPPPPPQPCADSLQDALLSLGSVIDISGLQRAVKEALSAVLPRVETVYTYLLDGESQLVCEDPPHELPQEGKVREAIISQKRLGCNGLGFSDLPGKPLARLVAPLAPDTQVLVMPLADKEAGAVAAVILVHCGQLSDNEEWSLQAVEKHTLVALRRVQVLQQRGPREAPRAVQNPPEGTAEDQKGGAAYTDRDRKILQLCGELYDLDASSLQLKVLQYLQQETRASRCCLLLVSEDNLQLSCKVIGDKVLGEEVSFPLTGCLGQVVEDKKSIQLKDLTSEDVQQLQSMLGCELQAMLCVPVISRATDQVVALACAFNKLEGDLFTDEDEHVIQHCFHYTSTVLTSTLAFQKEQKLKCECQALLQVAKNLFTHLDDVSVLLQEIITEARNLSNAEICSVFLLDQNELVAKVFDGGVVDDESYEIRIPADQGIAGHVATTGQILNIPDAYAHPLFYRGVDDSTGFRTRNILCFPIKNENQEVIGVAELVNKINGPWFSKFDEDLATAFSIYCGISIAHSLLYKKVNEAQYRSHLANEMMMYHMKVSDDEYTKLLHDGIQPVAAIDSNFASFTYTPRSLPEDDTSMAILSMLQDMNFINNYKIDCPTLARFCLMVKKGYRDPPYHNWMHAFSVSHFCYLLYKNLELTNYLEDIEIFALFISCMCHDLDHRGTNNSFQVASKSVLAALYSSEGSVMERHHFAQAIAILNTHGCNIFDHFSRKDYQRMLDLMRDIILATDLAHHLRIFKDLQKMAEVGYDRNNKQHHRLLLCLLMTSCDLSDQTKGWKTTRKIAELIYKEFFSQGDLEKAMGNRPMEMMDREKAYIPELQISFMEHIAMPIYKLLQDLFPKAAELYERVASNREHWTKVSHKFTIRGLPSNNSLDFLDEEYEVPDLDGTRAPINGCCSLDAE
Assay: In vitro assay PDE2A (SPA, 3H-cGMP)
Type: biochemical
Conditions: 10 μM cGMP substrate
Description: Human recombinant PDE2A (hPDE2A) was expressed in Sf9 cells using a recombinant rPDE10A baculovirus construct. Cells were harvested after 48 h of infection and the hPDE2A protein was purified by metal chelate chromatography on Ni-sepharose 6FF. […] After sedimentation of the beads during 30 minutes the radioactivity was measured in a Perkin Elmer Topcount scintillation counter and results were expressed as cpm. […]
measurement label: Emax (%)

# molecule, measurement label, display unit, numeric readout
records = [
    ("Cc1cc(CN2CC[C@@H](C)[C@H](c3cc(C(F)F)nc4ncnn34)C2)cc(Cl)n1.Cl [Compound 10]", "Emax", "%", 96),
    ("C[C@@H]1CCN([C@H](C)c2ccc3ncsc3c2)C[C@H]1c1cc(C(F)F)nc2ncnn12 (single isomer, unassigned) [Compound 12]", "Emax", "%", 99),
    ("C[C@@H]1CCN(Cc2ccc(C(F)(F)F)cc2)C[C@H]1c1cc(C(F)F)nc2ncnn12 [Compound 39]", "Emax", "%", 99),
    ("C[C@@H]1CCN([C@@H](C)c2ccc3ncsc3c2)C[C@H]1c1cc(C(F)F)nc2ncnn12 (single isomer, unassigned) [Compound 13]", "Emax", "%", 98),
    ("C[C@@H]1CCN(Cc2nn(C)c3ccccc23)C[C@H]1c1cc(C(F)F)nc2ncnn12 [Compound 48]", "Emax", "%", 96),
    ("CC(C)CN1CC[C@@H](C)[C@H](c2cc(C(F)F)nc3ncnn23)C1 [Compound 29]", "Emax", "%", 3),
    ("Cc1cc(CN2CCCC(C)(c3cc(C(F)F)nc4ncnn34)C2)cc(Cl)n1 (stereo not shown) [Compound 28]", "Emax", "%", 16),
]
